# assay_comment: In vivo metabolism (biostability), HPLC analysis of organ samples
# measurement_parameters: ICR mice, i.v., post-injection time 10 min
measurement_kind: Percentage of Parent tracer, Liver (%)
// return numeric value only (unit: %, not printed)

compound | value_unit | Percentage of Parent tracer, Liver
FCCOc1ccc(COc2ccc([125I])cc2)cc1 [[^125I]12a] | % | 21.5
[18F]CCOc1ccc(OCc2ccc(I)cc2)cc1 [[^18F]7a] | % | 62.6
[18F]CCOc1ccc(COc2ccc(I)cc2)cc1 [[^18F]12a] | % | 85.3

Memo: FCCOc1ccc(OCc2ccc([125I])cc2)cc1 [[^125I]7a] , reported Percentage of Parent tracer, Liver: 13.5
